- ASSAY METHOD TEXT: Selectivity index, ratio of cytotoxicity against human BT549 cells to IC50 for Cryptococcus neoformans ATCC 90113
- Type: toxicity, cell-based
- ASSAY SETUP: read-out: Selectivity Index
Residues, ends and D or L forms follow the SMILES beside them. *: point of attachment. NHBn = c1ccc(CN*)cc1
MEASURE: selectivity ratio

Given the entry "COC(=O)[C@H](Cc1c[nH]c(-c2ccc(C(C)(C)C)cc2)n1)NC(=O)[C@H](Cc1c[nH]c2ccccc12)NC(=O)[C@@H](N)Cc1c[nH]c(-c2ccc(C(C)(C)C)cc2)n1" , report its measured selectivity ratio.
> 12

Given the entry COC(=O)[C@H](Cc1c[nH]cn1)NC(=O)[C@H](Cc1c[nH]c2ccccc12)NC(=O)[C@@H](N)Cc1c[nH]cn1 (H-His-Trp-His-OMe) , report its measured selectivity ratio.
> 1

Given the entry "COC(=O)[C@H](Cc1c[nH]c(-c2ccccc2)n1)NC(=O)[C@H](Cc1c[nH]c2ccccc12)NC(=O)[C@@H](N)Cc1c[nH]c(-c2ccccc2)n1" , report its measured selectivity ratio.
> 2.7

Given the entry "COC(=O)[C@H](Cc1c[nH]c(-c2ccc(C(C)(C)C)cc2)n1)NC(=O)[C@H](Cc1c[nH]c2ccccc12)NC(=O)[C@H](Cc1c[nH]c(-c2ccc(C(C)(C)C)cc2)n1)NC(=O)OC(C)(C)C" , report its measured selectivity ratio.
> 7.9

Given the entry "N[C@@H](Cc1c[nH]c(-c2ccc(-c3ccccc3)cc2)n1)C(=O)N[C@@H](Cc1c[nH]c2ccccc12)C(=O)N[C@@H](Cc1c[nH]c(-c2ccc(-c3ccccc3)cc2)n1)C(=O)NCc1ccccc1" , report its measured selectivity ratio.
> 7.1

Given the entry N[C@@H](Cc1cnc[nH]1)C(=O)N[C@@H](Cc1c[nH]c2ccccc12)C(=O)N[C@@H](Cc1cnc[nH]1)C(=O)NCc1ccccc1 (H-His-Trp-His-NHBn) , report its measured selectivity ratio.
> 1.2

Given the entry "CC(C)(C)c1ccc(-c2nc(C[C@H](NC(=O)[C@H](Cc3c[nH]c4ccccc34)NC(=O)[C@@H](N)Cc3c[nH]c(-c4ccc(C(C)(C)C)cc4)n3)C(=O)NCc3ccccc3)c[nH]2)cc1" , report its measured selectivity ratio.
> 3.8
